Molecular target: Cytochrome P450 3A4 (Homo sapiens)
Experiment: Cytochrome panel assay with activity outcomes
Conditions: recombinant CYP, pro-luciferin dealkylation, luminescence, p450-cyp3a4; series mostly up to 57.1 µM
In all, about 16,000 compounds went through this assay and about 5,100 (32%) were called active. Not shown: some 25% with an inconclusive outcome. The list shows a part of the results.
reported-metric: AC50

// below: answered molecules
molecule=O=C(O)C1CCN(c2ncccn2)CC1 result=inactive
molecule=CC(=O)Nc1ccc2c(c1)OCCO2 result=inactive
molecule=CCN(CC)S(=O)(=O)c1ccc(OC)c(NC(=O)c2cc([N+](=O)[O-])ccc2Cl)c1 result="12.6 µM (active)"
molecule=COc1ccc(C(=O)c2ccc(OC)c(OC)c2)cc1OC result="15.8 µM (active)"
molecule=COc1ccc(NS(=O)(=O)c2ccc(NC(=O)c3cnn4c(C(F)F)cc(-c5ccc(C)cc5)nc34)cc2)cc1 result="1.26 µM (active)"
molecule=O=C(c1ccc(C(F)(F)F)cc1)c1c[nH]c(C(=O)NCCCn2ccnc2)c1 result="1 µM (active)"
molecule=CC(C)(C)c1ccc(C(=O)c2c[nH]c(C(=O)NCCCn3ccnc3)c2)cc1 result="0.282 µM (active)"
molecule=COc1ccc(C(=O)c2ccccc2)cc1Br result=inactive
molecule=CCCCOc1ccc(-c2nnn(CC(=O)c3c[nH]c4ccccc34)n2)cc1 result=inactive
molecule="CCNC(=O)CC1C(=O)N(c2ccc(F)cc2)C(=O)N1CCc1ccc(OC)cc1 (stereo not given)" result="7.08 µM (active)"

Now take the following molecule into account.
Exercise: Find the recorded AC50 belonging to COc1ccc(Oc2ncc3nc(C)c(=O)n(C)c3n2)cc1 and report it.
Key: 25.1 µM (active)

----------
Biological target: Cytochrome P450 3A4 (Homo sapiens) (UniProt P08684)
Sequence (P08684 whole entry, looked up): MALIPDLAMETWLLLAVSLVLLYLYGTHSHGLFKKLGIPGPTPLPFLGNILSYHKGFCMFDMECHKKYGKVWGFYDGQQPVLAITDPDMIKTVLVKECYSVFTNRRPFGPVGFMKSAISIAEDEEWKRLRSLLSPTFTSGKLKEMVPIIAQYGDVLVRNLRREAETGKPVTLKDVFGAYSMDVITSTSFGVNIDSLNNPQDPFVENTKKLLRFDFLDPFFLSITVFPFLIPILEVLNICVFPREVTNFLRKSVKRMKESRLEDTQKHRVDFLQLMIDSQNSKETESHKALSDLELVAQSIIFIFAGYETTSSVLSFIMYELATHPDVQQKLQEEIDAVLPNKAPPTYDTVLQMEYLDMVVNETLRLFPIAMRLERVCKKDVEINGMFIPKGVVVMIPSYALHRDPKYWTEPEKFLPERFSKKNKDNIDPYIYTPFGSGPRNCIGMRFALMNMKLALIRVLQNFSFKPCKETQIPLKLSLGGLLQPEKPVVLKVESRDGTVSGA
Assay: Cytochrome panel assay with activity outcomes
Settings: recombinant CYP, pro-luciferin dealkylation, luminescence, p450-cyp3a4; series mostly up to 57.1 µM
Experimental: The P450 gene superfamily is involved in the metabolism and clearance of xenobiotics. This assay used various human CYP P450 isozymes to measure the dealkylation of various pro-luciferin substrates to luciferin. The luciferin is then measured by luminescence after the addition of a luciferase detection reagent. […] Inhibitors and some substrates limit the production of luciferin, and decrease measured luminescence. […] 8, Detection, 1 sec, ViewLux luminescent read […]
About 5,100 (32%) of roughly 16,000 compounds were called active. Another 25% or so got no clear call; they are omitted. Calls follow the shape of the dose curve; as a rule, active = well fitted curve in the direction sought with a large enough effect; inconclusive = small, poorly fitted or top-dose-only effect, or effect the other way; inactive = no such curve, though single readings can be large or run the other way. Some of the results follow.
Your reply should match one of these outcome classes. 1 (active), -1 (inactive)

Exercise: Hello, I am checking results. What call was entered for CC(Sc1nnc(C(C)N(C)C)n1-c1ccc(Cl)cc1)C(=O)Nc1ccc2c(c1)OCO2 (stereo unspecified) ?
Key: 1

Exercise: # lookup: test call for COc1ccccc1NCc1nnc(SCC(=O)N/N=C/c2ccco2)n1-c1ccc(Cl)cc1Cl
Key: 1

Exercise: Recorded test call requested for Cc1cc(C)n(CC(=O)N/N=C/c2ccco2)n1
Key: -1

Exercise: Any idea what this test logged for N#Cc1ccccc1Sc1ccccc1N ?
Key: 1

Exercise: What call does the record list for COC(=O)c1c(-c2cc(OC)c(OC)c(OC)c2)c2ccnc(OCc3ncccn3)c2c(=O)n1Cc1ccnc(C)c1 ?
Key: 1

Exercise: // param item: CNC(=O)c1c(I)c(C(=O)NCC(=O)Nc2c(I)c(C(=O)O)c(I)c(C(=O)NCCO)c2I)c(I)c(N(C)C(C)=O)c1I ; yields the recorded call
Key: -1

Exercise: Hello, I am checking results. What call was entered for c1csc(CNc2nc(-c3ccoc3)nc3ccccc23)c1 ?
Key: 1

Exercise: What did this assay record as the result for Cc1ccc(CS(=O)(=O)CCC(=O)N2CCOCC2)cc1 ?
Key: -1

Exercise: Hey, what did the test say about CCC(=S)/C=C1\Sc2ccc3ccccc3c2N1CCCS(=O)(=O)O ?
Key: -1

Exercise: What did this assay record as the result for CCCC[S@@](=N)(=O)CC[C@@H](N)C(=O)O ?
Key: -1

Exercise: Could you kindly confirm the outcome this assay logged for CC(=O)N1CCC2(CC1)CCN(C(=O)Nc1cccc(F)c1)CC2 ?
Key: -1

----------
Molecular target: Cytochrome P450 3A4 (Homo sapiens)
Assay: Cytochrome panel assay with activity outcomes
Conditions: recombinant CYP, pro-luciferin dealkylation, luminescence, p450-cyp3a4; series mostly up to 57.1 µM
About 5,100 (32%) of roughly 16,000 compounds were called active. About 25% were inconclusive and are not listed. The call rests on the fitted dose curve; in most records, active means well fitted curve in the direction sought with a large enough effect; inconclusive means small, poorly fitted or top-dose-only effect, or effect the other way; inactive means no such curve, though single readings can be large or run the other way. The list shows a part of the results.
One label from this list, please: TRUE = active, FALSE = inactive

Exercise: Test call, this compound: N=C(N)S[C@H]1c2ccccc2-c2cc([N+](=O)[O-])ccc21
Key: TRUE

Exercise: State the result this test recorded for CCCN1C(=O)C2(/C(=C(\O)c3ccc4c(c3)OCCO4)C(=O)C(=O)N2CCCOC)c2ccccc21 (stereo not drawn) .
Key: FALSE

Exercise: Field: outcome | Entry: Cc1ccnc(N)c1
Key: FALSE

----------
Biological target: Cytochrome P450 3A4 (Homo sapiens)
Assay: Cytochrome panel assay with activity outcomes; for activity, negative = inhibition: % is set by controls: 0 for no effect and ±100 for the full control effect
Conditions: recombinant CYP, pro-luciferin dealkylation, luminescence, p450-cyp3a4; series mostly up to 57.1 µM
The whole screen tested about 16,000 compounds, of which about 5,100 (32%) were called active. Inconclusive results (about 25%) are left out. The list shows a part of the results.
Would you kindly list activity, negative = inhibition for each of these compounds?

Exercise: So what does the record say about activity, negative = inhibition for CCN1C(=O)[C@H]2[C@H]3[C@H](O)[C@H](O)C/C(=N/NC(=O)OCc4ccccc4)[C@H]3CC[C@@H]2C1=O ?
Key: -12.4% [at 11.4 µM] (inactive)

Exercise: Form field: reported activity, negative = inhibition of CCN(CC)CCNC(=O)C(C)c1nn(C)c(=O)c2ccccc12 (centres undefined)
Key: -0.681% [at 2.29 µM] (inactive)

Exercise: Which activity, negative = inhibition is listed for N#Cc1c(NC(=O)CCC(=O)O)ccc2ccccc12 ?
Key: -1.16% [at 11.4 µM] (inactive)

Exercise: Recorded activity, negative = inhibition of CSc1nc(C)cc(Nc2ccc(O)c(CN3CCOCC3)c2)n1 , please.
Key: 0.709% [at 11.4 µM] (inactive)

----------
Kindly state activity, negative = inhibition for each of the entries shown.
Target: Cytochrome P450 3A4 (Homo sapiens) (UniProt P08684)
Test: Cytochrome panel assay with activity outcomes; for activity, negative = inhibition: % is set by controls: 0 for no effect and ±100 for the full control effect
Conditions: recombinant CYP, pro-luciferin dealkylation, luminescence, p450-cyp3a4; series mostly up to 57.1 µM
Out of some 16,000 compounds screened, about 5,100 (32%) were called active. Inconclusive results (about 25%) are left out. The list shows a part of the results.

Exercise: Which measured activity, negative = inhibition value corresponds to CC(/C=N/NC(=O)Cc1cccs1)=C\c1ccco1 ?
Key: 1.99% [at 2.29 µM] (inactive)

Exercise: Look up activity, negative = inhibition for this molecule: CCC(CC)C(=O)NCCN1CCN(C(=O)C(CC)CC)CC1
Key: 2.98% [at 2.29 µM] (inactive)

Exercise: Give its activity, negative = inhibition value. Item: N/N=C1/CC(=O)NC(=O)N1
Key: -21.1% [at 11.4 µM] (inactive)

Exercise: Record request: activity, negative = inhibition value, item CC(=O)Nc1ccc(-c2cc(C(=O)O)c3cc4ccccc4cc3n2)cc1
Key: -8.77% [at 11.4 µM] (inactive)

Exercise: # get_value(readout='activity, negative = inhibition', item= Cc1ccc(NC(=O)CN2C(=O)N/C(=C/c3ccc(C)o3)C2=O)cc1 )
Key: 7.39% [at 2.29 µM] (inactive)

Exercise: Name the reported activity, negative = inhibition value associated with the molecule CCC(=O)[C@@H](c1ccccc1)c1ccccn1
Key: -1.45% [at 11.4 µM] (inactive)

----------
Target: Cytochrome P450 3A4 (Homo sapiens)
Experiment: Cytochrome panel assay with activity outcomes
Conditions: recombinant CYP, pro-luciferin dealkylation, luminescence, p450-cyp3a4; series mostly up to 57.1 µM
About 5,100 (32%) of roughly 16,000 compounds were called active. About 25% were inconclusive and are not listed. This is one part of the list.
reported-metric: AC50

Sample records with AC50:
compound=O=C(ON=C1CCN(S(=O)(=O)c2ccccc2)CC1)c1ccccc1 target_system="Cytochrome P450 3A4 (Homo sapiens)" reported_metric=AC50 result=inactive
compound=O=C(/C=C/c1cccnc1)c1ccc(NC(=O)c2cccc(Br)c2)cc1 target_system="Cytochrome P450 3A4 (Homo sapiens)" reported_metric=AC50 result="2.24 µM (active)"
compound="CCC1(C)Nc2ccccc2C(=O)N1O (configuration not stated)" target_system="Cytochrome P450 3A4 (Homo sapiens)" reported_metric=AC50 result=inactive
compound=COc1ccccc1CNc1ncncc1-c1cccnc1 target_system="Cytochrome P450 3A4 (Homo sapiens)" reported_metric=AC50 result="0.794 µM (active)"
compound=O=[N+]([O-])c1cccc(-c2nc(-c3ccncc3)no2)c1 target_system="Cytochrome P450 3A4 (Homo sapiens)" reported_metric=AC50 result="0.562 µM (active)"
compound=C/C(=N\Nc1nnc(C)c(=O)[nH]1)C(=O)O target_system="Cytochrome P450 3A4 (Homo sapiens)" reported_metric=AC50 result=inactive
compound=O=C(Nc1cccc(Br)c1)/C(=C\c1cccnc1)NC(=O)c1ccco1 target_system="Cytochrome P450 3A4 (Homo sapiens)" reported_metric=AC50 result="0.501 µM (active)"
compound=O=C(Nc1ccc2nc(-c3ccc(Br)o3)[nH]c2c1)c1ccco1 target_system="Cytochrome P450 3A4 (Homo sapiens)" reported_metric=AC50 result="14.1 µM (active)"
compound=COC1=C(OC)C(=O)c2ccccc2C1=O target_system="Cytochrome P450 3A4 (Homo sapiens)" reported_metric=AC50 result="20 µM (active)"
compound=O=C(Nc1cccc(F)c1)Nc1ccccn1 target_system="Cytochrome P450 3A4 (Homo sapiens)" reported_metric=AC50 result=inactive

Exercise: Give the measured AC50 of CO[C@]1(NC(=O)C2SC(=C(C(N)=O)C(=O)O)S2)C(=O)N2C(C(=O)O)=C(CSc3nnnn3C)CS[C@H]21 (some centres not stated) .
Key: inactive

Exercise: Please give the measured AC50 for this compound: CCCCC1(C)Nc2ccccc2-c2nc3ccccc3n21 (configuration not stated)
Key: 7.08 µM (active)
